# Assay Target: T1, human IL-18BP (interleukin-18 binding protein, isoform A) (human, UniProt O95998 31-194)
# T1 construct: cell assays used Sino Biological 10357-H08H; PBMC assay 1 relies on endogenous IL-18BP; UniProt number is printed as 095998; also called hIL-18BP
# T1 sequence: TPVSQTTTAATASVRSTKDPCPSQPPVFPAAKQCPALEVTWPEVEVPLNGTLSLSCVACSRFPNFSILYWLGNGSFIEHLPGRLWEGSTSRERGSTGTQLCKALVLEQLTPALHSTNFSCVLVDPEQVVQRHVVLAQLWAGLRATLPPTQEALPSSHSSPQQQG
# Assay Method Text: BLI single-concentration screen, apparent KD
pKd: −log10 of the molar value.
Experimental Readout: pKd

Binder	Observed
SA301a heavy chain variant N33bQ, C34S (antibody, human IgG1, V domains shown, library variant, human IgG1/kappa, from supernatant) VH: QVQLQESGPGLVKPSQTLSLTCTVSGYSITSDYQSHWIRQPPGKGLEWIGYIHYSGSTNYNPSLKSRVTISRDTSKNQFSLKLSSVTAADTAVYYCARNYGSIYVNYFDYWGQGTLVTVSS VL: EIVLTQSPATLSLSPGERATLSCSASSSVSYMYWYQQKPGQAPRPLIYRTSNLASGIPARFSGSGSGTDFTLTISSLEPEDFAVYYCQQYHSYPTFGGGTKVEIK	8.72
heavy chain library variant C34R (antibody, V domains shown) VH: QVQLQESGPGLVKPSQTLSLTCTVSGYSITSDYNRHWIRQPPGKGLEWIGYIHYSGSTNYNPSLKSRVTISRDTSKNQFSLKLSSVTAADTAVYYCARNYGSIYVNYFDYWGQGTLVTVSS VL: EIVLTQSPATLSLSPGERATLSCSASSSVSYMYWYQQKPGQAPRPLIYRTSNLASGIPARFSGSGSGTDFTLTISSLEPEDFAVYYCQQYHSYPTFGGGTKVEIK	8.74
SA302a heavy chain variant N33bK, C34A (antibody, human IgG1, V domains shown, library variant, human IgG1/kappa, from supernatant) VH: QVQLQESGPGLVKPSQTLSLTCTVSGYSITSDYKAHWIRQPPGKGLEWIGYIHYSGSTNYNPSLKSRVTISRDTSKNQFSLKLSSVTAADTAVYYCARNYGSIYVNYFDYWGQGTLVTVSS VL: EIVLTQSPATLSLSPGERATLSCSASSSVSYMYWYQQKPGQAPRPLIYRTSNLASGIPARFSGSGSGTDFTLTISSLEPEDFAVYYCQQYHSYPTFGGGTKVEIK	9.52
